Recorded below: pKi, system HSP90 (9-236) (Homo sapiens).
Answers are plain numbers, as −log10 of the molar value.

Look over these answered cases.
compound | property | valueObserved
Cc1cccc(C(=O)Nc2ccc3c(c2)OCCO3)c1[N+](=O)[O-] [compound 7] | pKi | 5.16
CCCC(=O)N1CCN(c2ccc(NC(=O)c3cccc(C)c3OC)cc2)CC1 [compound 11] | pKi | 4.01
Cc1ccc(-c2nc3nc4ccccc4nc3n2CC2CCCO2)cc1 (stereo not shown) [compound 9] | pKi | 4.16
COc1cccc(C(=O)Nc2ccc(Oc3ccccc3)cc2)c1OC [compound 2] | pKi | 6.29

// each compound listed below needs its pKi
1. Nc1c(C(=O)c2ccccc2)sc2nc3c(cc12)CCCC3 [compound 5]
2. Cc1ccc(Cn2c(C)c(C)n3c4c(=O)[nH]c(=O)n(C)c4nc23)cc1 [compound 4]

1. 5.40
2. 5.60

Record O=C(Nc1ccccc1)C1CC(=O)N(c2ccc3c4c(cccc24)CC3)C1 (stereo not shown) [compound 6] . Reported pKi: 5.35
